- protocol_text: Selectivity index, ratio of EC50 for human HEK cells to EC50 for wild type Trypanosoma brucei brucei Lister 427
- Assay type: toxicity, cell-based, HEK293
- condition_info: HEK cells, read-out: Ratio EC50
Mark Condition met for selectivity ratio under 800, Condition not met if at or over.

test_smiles	label_class
[Br-].[Br-].c1ccc2c([P+](Cc3ccc(Oc4ccc(C[P+](c5cccc6ccccc56)(c5cccc6ccccc56)c5cccc6ccccc56)cc4)cc3)(c3cccc4ccccc34)c3cccc4ccccc34)cccc2c1	Condition met
Cc1ccc(C[P+](c2ccccc2)(c2ccccc2)c2ccccc2)cc1.[Cl-]	Condition not met

Enquiry: For FC(F)(F)c1ccc([P+](Cc2ccc(Oc3ccc(C[P+](c4ccc(C(F)(F)F)cc4)(c4ccc(C(F)(F)F)cc4)c4ccc(C(F)(F)F)cc4)cc3)cc2)(c2ccc(C(F)(F)F)cc2)c2ccc(C(F)(F)F)cc2)cc1.[Br-].[Br-] , is the recorded selectivity ratio below the cut-off of 800?
Return: Condition met

Enquiry: For Cc1ccc([P+](CCc2ccc(CCCc3ccc(CC[P+](c4ccc(C)cc4)(c4ccc(C)cc4)c4ccc(C)cc4)cc3)cc2)(c2ccc(C)cc2)c2ccc(C)cc2)cc1.[Cl-].[Cl-] , is the recorded selectivity ratio below the cut-off of 800?
Return: Condition met

Enquiry: State whether 800 exceeds selectivity ratio recorded for CCC[P+](Cc1ccc(Cc2ccc(C[P+](CCC)(c3ccccc3)c3ccccc3)cc2)cc1)(c1ccccc1)c1ccccc1.[Br-].[Br-] .
Return: Condition not met

Enquiry: Take the molecule CCCCCC[P+](CCCCCC)(CCCCCC)Cc1ccc(Oc2ccc(C[P+](CCCCCC)(CCCCCC)CCCCCC)cc2)cc1.[Br-].[Br-] and say whether its selectivity ratio is less than 800.
Return: Condition met

Enquiry: Could you please tell me whether selectivity ratio recorded for COc1ccccc1[P+](Cc1ccc(Cc2ccc(C[P+](c3ccccc3OC)(c3ccccc3OC)c3ccccc3OC)cc2)cc1)(c1ccccc1OC)c1ccccc1OC.[Br-].[Br-] is less than 800?
Return: Condition not met

Enquiry: Say whether its selectivity ratio is strictly beneath 800. Entry: Cc1ccc([P+](Cc2ccc(Oc3ccc(C[P+](c4ccccc4)(c4ccccc4)c4ccc(C)cc4)cc3)cc2)(c2ccccc2)c2ccccc2)cc1.[Br-].[Br-]
Return: Condition not met

* * *

Quick reference for selectivity ratio among some compounds
- protocol_text: Selectivity index, ratio of EC50 for human HEK cells to EC50 for wild type Trypanosoma brucei brucei Lister 427
- Type: toxicity, cell-based, HEK293
- condition_info: HEK cells, read-out: Ratio EC50

test_smiles	selectivity ratio
[Br-].[Br-].c1ccc2c([P+](Cc3ccc(Cc4ccc(C[P+](c5cccc6ccccc56)(c5cccc6ccccc56)c5cccc6ccccc56)cc4)cc3)(c3cccc4ccccc34)c3cccc4ccccc34)cccc2c1	1210
C[P+](Cc1ccc(C(=O)c2ccc(C[P+](C)(c3ccccc3)c3ccccc3)cc2)cc1)(c1ccccc1)c1ccccc1.[Br-].[Br-]	> 200
O=C(c1ccc(C[P+](Cc2ccccc2)(c2ccccc2)c2ccccc2)cc1)c1ccc(C[P+](Cc2ccccc2)(c2ccccc2)c2ccccc2)cc1.[Br-].[Br-]	> 370
O=C(c1ccc(C[P+](c2ccccc2)(c2ccccc2)C2CCCCC2)cc1)c1ccc(C[P+](c2ccccc2)(c2ccccc2)C2CCCCC2)cc1.[Br-].[Br-]	> 1000
Cc1ccc([P+](Cc2ccc(Oc3ccc(C[P+](c4ccc(C)cc4)(c4ccc(C)cc4)c4ccc(C)cc4)cc3)cc2)(c2ccc(C)cc2)c2ccc(C)cc2)cc1.[Br-].[Br-]	3570

Enquiry: Quick one: selectivity ratio for COc1ccccc1[P+](Cc1ccc(C(=O)c2ccc(C[P+](c3ccccc3)(c3ccccc3OC)c3ccccc3OC)cc2)cc1)(c1ccccc1)c1ccccc1OC.[Br-].[Br-] ?
Return: 438

Enquiry: Report selectivity ratio for CC(C)[P+](Cc1ccc(Cc2ccc(C[P+](c3ccccc3)(c3ccccc3)C(C)C)cc2)cc1)(c1ccccc1)c1ccccc1.[Br-].[Br-] please.
Return: > 680

Enquiry: # query: selectivity ratio of entry O=C(c1ccc(C[P+](c2ccccc2)(C2CCCCC2)C2CCCCC2)cc1)c1ccc(C[P+](c2ccccc2)(C2CCCCC2)C2CCCCC2)cc1.[Br-].[Br-]
Return: > 1270

Enquiry: State the recorded selectivity ratio for this entry: Cc1cccc([P+](Cc2ccc(C(=O)c3ccccc3)cc2)(c2cccc(C)c2)c2cccc(C)c2)c1.[Br-]
Return: 281

Enquiry: Suppose we examine the compound Fc1c(F)c(F)c([P+](Cc2ccc(Cc3ccc(C[P+](c4ccccc4)(c4ccccc4)c4c(F)c(F)c(F)c(F)c4F)cc3)cc2)(c2ccccc2)c2ccccc2)c(F)c1F.[Br-].[Br-] ; what selectivity ratio value has been reported?
Return: > 110

Enquiry: I have this compound here, CC(C)C[P+](Cc1ccc(C(=O)c2ccc(C[P+](CC(C)C)(CC(C)C)CC(C)C)cc2)cc1)(CC(C)C)CC(C)C.[Br-].[Br-] , and I need its recorded selectivity ratio.
Return: > 110

Enquiry: selectivity ratio for COc1ccccc1[P+](Cc1ccc(C(=O)c2ccc(C[P+](c3ccccc3OC)(c3ccccc3OC)c3ccccc3OC)cc2)cc1)(c1ccccc1OC)c1ccccc1OC.[Br-].[Br-] ?
Return: 1180
